B1: Mineralocorticoid receptor, residues 600 to 675; numbered along this chain, P08235 (parent)
chain: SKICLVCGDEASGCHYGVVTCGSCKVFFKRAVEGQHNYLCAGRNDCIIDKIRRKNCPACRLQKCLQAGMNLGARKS

- Variants of: B1
- Assay Notes: abundance fitness (aPCA) (normalised: wild type 0, dead -1); higher = more abundant; growth selection in yeast, the domain comes from the species named
- Run Parameters: Homo sapiens
Please go through the items and note down their abundance fitness.
One number for each entry.

These solved cases illustrate the format of a correct answer.
Item Sequence: SKICLVCGDEASGCHYGVVTCGSCKVFFKRAVEGQHNYLCAGRNDCIIDKIRRKNCPACRLQKCLQAGMNLGARKK [S76K]
Measured Endpoint: abundance fitness
Measured Value: -0.654
--
Item Sequence: SKICLVCYDEASGCHYGVVTCGSCKVFFKRAVEGQHNYLCAGRNDCIIDKIRRKNCPACRLQKCLQAGMNLGARKS [G8Y]
Measured Endpoint: abundance fitness
Measured Value: -0.248

List reported abundance fitness for each of these variants:
1. SKICLVCGDEASGCHYGVVTCGSCKVFFKRAVEGQHNYLCAGRNDCIIDKIRRKNCPACRLQKCLQAGMNLGAPKS [R74P]
2. SKICLVCGDEASGCHYGVVTCGGCKVFFKRAVEGQHNYLCAGRNDCIIDKIRRKNCPACRLQKCLQAGMNLGARKS [S23G]
3. SKICLVCGDEASGCHYGVVTCGSCKVFFKRAVEGQHNYLCAGRNDCIIDKIRFKNCPACRLQKCLQAGMNLGARKS [R53F]

Result:
1. -0.03
2. 0.009
3. -0.056

Hey, quick one: what's abundance fitness for each of these?
1. SKICLVCGDEASGCHYGVVTCGSCKVFFKRAVEGQHNYLCAGRNDCIIDKIRRKNCPACRLQKCLQAGMNLGARTS [K75T]
2. SKICLVCGDEASGCHYGVVTCGSCKVFFKRAVEGQHNKLCAGRNDCIIDKIRRKNCPACRLQKCLQAGMNLGARKS [Y38K]
3. SKICLVCGDEASGCHYGVVTCGSCKVFFKRAVEGQHNYLCAGRNDCIIDKIRRKSCPACRLQKCLQAGMNLGARKS [N55S]
4. SKICLVCGDEASGCHYGLVTCGSCKVFFKRAVEGQHNYLCAGRNDCIIDKIRRKNCPACRLQKCLQAGMNLGARKS [V18L]
5. SKICLVCGDEASGCHYGVVTCGSCKVFFKRAVEGQHNYLCAGRNDCIIDKIRRKNCPACRLQWCLQAGMNLGARKS [K63W]

Result:
1. 0.014
2. -0.026
3. -0.051
4. -0.06
5. -0.204

Count: 8. Required value per item: abundance fitness.
1. SKICLVCGDEASGCHYGVVTCGSCKVFFKRAVEGQHNYLCAGRNDCIIDKIQRKNCPACRLQKCLQAGMNLGARKS [R52Q]
2. SKICLVCGDEASGCHYGVVTCGSCKVFFKRAVDGQHNYLCAGRNDCIIDKIRRKNCPACRLQKCLQAGMNLGARKS [E33D]
3. SKICLVCGDEASGCHYGVVTCGSLKVFFKRAVEGQHNYLCAGRNDCIIDKIRRKNCPACRLQKCLQAGMNLGARKS [C24L]
4. SKICLVCGDEASGCHYGVVTCGSCQVFFKRAVEGQHNYLCAGRNDCIIDKIRRKNCPACRLQKCLQAGMNLGARKS [K25Q]
5. SKICLVCGDEASGCHYGVVTCGDCKVFFKRAVEGQHNYLCAGRNDCIIDKIRRKNCPACRLQKCLQAGMNLGARKS [S23D]
6. SKICLVCGDEASGCHYGQVTCGSCKVFFKRAVEGQHNYLCAGRNDCIIDKIRRKNCPACRLQKCLQAGMNLGARKS [V18Q]
7. SKICLVCGDEASGCHYGVVTCGSCKVFFKRAVEGQHNYLCAGRNDCIIDKIRRKNCPACRLQKCLQKGMNLGARKS [A67K]
8. SKICLVCGDEASGCHYGVVTCGSCKVFFKRAVEGQHNYLCAGRNDCIIDKIRRKNCWACRLQKCLQAGMNLGARKS [P57W]

Result:
1. 0.027
2. -0.043
3. -0.581
4. -0.006
5. 0.01
6. -0.15
7. -0.144
8. -0.027

Parameter requested: abundance fitness. Apply to each item below.
1. SKICLVCGDEASGCHYGVVTCGSCKVFFKRAVEGQHNYLCAGRNDCIIDKIRRKNCPACRLQKALQAGMNLGARKS [C64A]
2. SKICLVCGDEASGCHYGVVTCGSCKVFFKRAVEGQHNYLCAGRNDCIIDKIRRKNCPACRLHKCLQAGMNLGARKS [Q62H]
3. SIICLVCGDEASGCHYGVVTCGSCKVFFKRAVEGQHNYLCAGRNDCIIDKIRRKNCPACRLQKCLQAGMNLGARKS [K2I]

Result:
-0.028
0.006
-0.041
